Each entry below lists one item and its recorded pIC50 value.
Tested on: Mycobacterium tuberculosis
Test: Antimicrobial activity against Mycobacterium tuberculosis H37Rv by Alamar blue assay
Assay type: functional
Reminder that pIC50 is minus the log10 of a molar concentration.

[[record]]
compound = "CCc1ccc(N2C(=O)C3CN(C)C4(C(=O)c5ccccc5C4=O)C3C2=O)cc1 (centres undefined)"
property_name = "pIC50"
reported_value = 4.66

[[record]]
compound = "CN1CC2C(=O)N(c3ccc(F)cc3)C(=O)C2C12C(=O)c1ccccc1C2=O (centres undefined)"
property_name = "pIC50"
reported_value = 5.66

[[record]]
compound = "CN1CC2C(=O)N(c3ccc(Br)cc3)C(=O)C2C12C(=O)c1ccccc1C2=O (centres undefined)"
property_name = "pIC50"
reported_value = 4.96

[[record]]
compound = "COc1ccccc1N1C(=O)C2CN(C)C3(C(=O)c4ccccc4C3=O)C2C1=O (centres undefined)"
property_name = "pIC50"
reported_value = 4.55

[[record]]
compound = "CN1CC2C(=O)N(Cc3ccccc3)C(=O)C2C12C(=O)c1ccccc1C2=O (centres undefined)"
property_name = "pIC50"
reported_value = 4.26


Fill in: pIC50 of CN1CC2C(=O)N(c3ccc(Cl)cc3)C(=O)C2C12C(=O)c1ccccc1C2=O (centres undefined) is ___
5.89

Can you check CC(C)c1ccc(N2C(=O)C3CN(C)C4(C(=O)c5ccccc5C4=O)C3C2=O)cc1 (centres undefined) next?
4.55

Can you check CN1CC2C(=O)N(c3ccc([N+](=O)[O-])cc3)C(=O)C2C12C(=O)c1ccccc1C2=O (centres undefined) next?
4.33

Can you check Cc1ccc(N2C(=O)C3CN(C)C4(C(=O)c5ccccc5C4=O)C3C2=O)cc1 (centres undefined) next?
4.40

====

Molecular target: Acetylcholinesterase (Homo sapiens)
Sequence (P22303 whole entry): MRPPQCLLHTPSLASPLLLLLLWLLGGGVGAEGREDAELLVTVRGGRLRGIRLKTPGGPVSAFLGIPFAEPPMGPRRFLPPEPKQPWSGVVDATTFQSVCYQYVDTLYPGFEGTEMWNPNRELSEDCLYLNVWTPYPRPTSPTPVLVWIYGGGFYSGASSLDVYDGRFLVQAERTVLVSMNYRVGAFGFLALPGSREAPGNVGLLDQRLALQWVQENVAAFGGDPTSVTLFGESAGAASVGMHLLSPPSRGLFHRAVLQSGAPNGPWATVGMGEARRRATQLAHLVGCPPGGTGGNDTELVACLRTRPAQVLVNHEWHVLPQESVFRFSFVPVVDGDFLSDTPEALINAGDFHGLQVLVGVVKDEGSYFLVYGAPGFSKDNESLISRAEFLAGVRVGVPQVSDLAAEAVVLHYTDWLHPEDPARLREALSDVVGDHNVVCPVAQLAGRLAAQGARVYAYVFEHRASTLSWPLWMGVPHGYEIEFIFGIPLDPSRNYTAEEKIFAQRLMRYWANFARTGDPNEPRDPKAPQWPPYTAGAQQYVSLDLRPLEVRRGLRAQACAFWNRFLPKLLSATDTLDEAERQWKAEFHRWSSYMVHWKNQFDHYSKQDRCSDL
Each entry below lists one item and its recorded IC50 value.
Number in µM, nothing else.

Below: 8 compounds and their reported IC50.
[[record]]
compound = "Cc1ccc(N2C(=O)C3CN(C)C4(C(=O)c5ccccc5C4=O)C3C2=O)cc1 (stereo not given)"
property_name = "IC50"
reported_value = 7.34

[[record]]
compound = "CN1CC2C(=O)N(c3ccc(Cl)cc3)C(=O)C2C12C(=O)c1ccccc1C2=O (stereo not given)"
property_name = "IC50"
reported_value = 27.9

[[record]]
compound = "CN1CC2C(=O)N(Cc3ccccc3)C(=O)C2C12C(=O)c1ccccc1C2=O (stereo not given)"
property_name = "IC50"
reported_value = 41.2

[[record]]
compound = "CN1CC2C(=O)N(C3CCCCC3)C(=O)C2C12C(=O)c1ccccc1C2=O (stereo not given)"
property_name = "IC50"
reported_value = 4.12

[[record]]
compound = "CN1CC2C(=O)N(c3ccccc3)C(=O)C2C12C(=O)c1ccccc1C2=O (stereo not given)"
property_name = "IC50"
reported_value = 69.8

[[record]]
compound = "CN1CC2C(=O)N(c3ccc(Br)cc3)C(=O)C2C12C(=O)c1ccccc1C2=O (stereo not given)"
property_name = "IC50"
reported_value = 73.3

[[record]]
compound = "CN1CC2C(=O)N(c3ccc(F)cc3)C(=O)C2C12C(=O)c1ccccc1C2=O (stereo not given)"
property_name = "IC50"
reported_value = 50.1

[[record]]
compound = "CC(C)c1ccc(N2C(=O)C3CN(C)C4(C(=O)c5ccccc5C4=O)C3C2=O)cc1 (stereo not given)"
property_name = "IC50"
reported_value = 12.2


Hi! What's the reported IC50 for CCc1ccc(N2C(=O)C3CN(C)C4(C(=O)c5ccccc5C4=O)C3C2=O)cc1 (stereo not given) on Acetylcholinesterase (Homo sapiens)?
44.6

Can you check COc1ccc(N2C(=O)C3CN(C)C4(C(=O)c5ccccc5C4=O)C3C2=O)cc1 (stereo not given) next?
0.78
